Ref: PubChem BioAssay (NCI)

- System: OVCAR-4 ovarian
- procedure_summary: NCI-60 one-dose screen, 48 h
- condition_set: 10 µM unless noted
Compounds without any hit were thinned out: in the full panel of roughly 83,000, 20% have a hit. Activity calls are given as the source filed them. Rule for the calls: active = growth percent below 10; inactive = the rest.
Your answer must be one of the following: y for active, n for inactive

>  <compound>
CC1=CC2c3oc(-c4ccccc4)c(C(=O)c4ccccc4)c3CNC2C=C1 (stereo not given)

>  <assigned_label>
n

$$$$

GET /call?item= CC(C)Nc1cc(-c2c[nH]c(C(=O)N[C@H](CO)c3cccc(Cl)c3)c2)c(Cl)cn1 returns the recorded outcome of this test. n

Also check Nc1nc(N)c2nc(-c3cccc(O)c3)c(-c3cccc(O)c3)nc2n1 n

What about this compound? Cn1ncc(Cl)c1-c1cc(C(=O)N[C@H](CN)Cc2cccc(F)c2)sc1Cl n

Now the compound COc1cccc2cc(-c3nc(C4CCC(C(=O)O)CC4)n4ncnc(N)c34)[nH]c12 (stereo not given) y
